Source: paper PMC11528066

Assay: Biodistribution (γ-counter)
Assay type: in vivo, BALB/C nude mice
Settings: male, BALB/C nude, mouse, tumor and muscle, iv, total radioactivity; 60 min p.i.; mean ± SD, n = 3; read-out: Tumor/Muscle ratio
Peptide text beside a SMILES is read from it. * marks the point of attachment. NOTA = O=C(O)CN1CCN(CC(=O)O)CCN(CC(=O)*)CC1; AEEEA = NCCOCCOCCOCC(=O)O
Assay metric: tissue to tissue ratio at 1 h
Please reply with the value in numeric form only.

Problem: Quickly give me recorded tissue to tissue ratio at 1 h for CC[C@H](C)[C@H](NC(=O)[C@H](CCCNC(=N)N)NC(=O)CNC(=O)[C@H](CCC(=O)O)NC(=O)[C@H](CC(N)=O)NC(=O)[C@H](Cc1ccc(O)cc1)NC(=O)[C@H](CCCNC(=N)N)NC(=O)[C@H](Cc1ccc(O)cc1)NC(=O)[C@H](Cc1c[nH]cn1)NC(=O)COCCOCCOCCNC(=O)CN1CCN(CC(=O)O)CCN(CC(=O)O)CC1)C(=O)N[C@@H](CCCNC(=N)N)C(=O)N[C@@H](CC(N)=O)C(=O)O [[^68Ga]Ga-HN11-1, metal not drawn] ({NOTA-AEEEA}-HYRYNEGRIRN-OH)
Solution: 4.11

* * *

Assay: Biodistribution (γ-counter)
Assay type: in vivo, BALB/C nude mice
Conditions: male, BALB/C nude, mouse, muscle, iv, total radioactivity, 30 min p.i.; mean ± SD, n = 3; read-out: Muscle uptake
Peptide text beside a SMILES is read from it. * marks the point of attachment. NOTA = O=C(O)CN1CCN(CC(=O)O)CCN(CC(=O)*)CC1; AEEEA = NCCOCCOCCOCC(=O)O
Assay metric: tissue uptake at 0.5 h (%ID/g)
State just the number; it will be interpreted in %ID/g.

Problem: Quickly give me recorded tissue uptake at 0.5 h for CC[C@H](C)[C@H](NC(=O)[C@H](CCCNC(=N)N)NC(=O)CNC(=O)[C@H](CCC(=O)O)NC(=O)[C@H](CC(N)=O)NC(=O)[C@H](Cc1ccc(O)cc1)NC(=O)[C@H](CCCNC(=N)N)NC(=O)[C@H](Cc1ccc(O)cc1)NC(=O)[C@H](Cc1c[nH]cn1)NC(=O)COCCOCCOCCNC(=O)CN1CCN(CC(=O)O)CCN(CC(=O)O)CC1)C(=O)N[C@@H](CCCNC(=N)N)C(=O)N[C@@H](CC(N)=O)C(=O)O [[^68Ga]Ga-HN11-1, metal not drawn] ({NOTA-AEEEA}-HYRYNEGRIRN-OH)
Solution: 0.69

* * *

Assay: Biodistribution (γ-counter)
Type: in vivo, BALB/C nude mice
Conditions: male, BALB/C nude, mouse, muscle, iv, total radioactivity, 60 min HN11-1 Block; mean ± SD, n = 3; read-out: Muscle uptake
Peptide text beside a SMILES is read from it. * marks the point of attachment. NOTA = O=C(O)CN1CCN(CC(=O)O)CCN(CC(=O)*)CC1; AEEEA = NCCOCCOCCOCC(=O)O
Assay metric: tissue uptake at 1 h (%ID/g)
State just the number; it will be interpreted in %ID/g.

Problem: Quickly give me recorded tissue uptake at 1 h for CC[C@H](C)[C@H](NC(=O)[C@H](CCCNC(=N)N)NC(=O)CNC(=O)[C@H](CCC(=O)O)NC(=O)[C@H](CC(N)=O)NC(=O)[C@H](Cc1ccc(O)cc1)NC(=O)[C@H](CCCNC(=N)N)NC(=O)[C@H](Cc1ccc(O)cc1)NC(=O)[C@H](Cc1c[nH]cn1)NC(=O)COCCOCCOCCNC(=O)CN1CCN(CC(=O)O)CCN(CC(=O)O)CC1)C(=O)N[C@@H](CCCNC(=N)N)C(=O)N[C@@H](CC(N)=O)C(=O)O [[^68Ga]Ga-HN11-1, metal not drawn] ({NOTA-AEEEA}-HYRYNEGRIRN-OH)
Solution: 0.56
